Ref: patent US4987131A

Study Target: cyclo-oxygenase contained in a microsomal preparation of seminal vesicles of a bull (Bos taurus, UniProt O62664)
Sequence (O62664 25-600): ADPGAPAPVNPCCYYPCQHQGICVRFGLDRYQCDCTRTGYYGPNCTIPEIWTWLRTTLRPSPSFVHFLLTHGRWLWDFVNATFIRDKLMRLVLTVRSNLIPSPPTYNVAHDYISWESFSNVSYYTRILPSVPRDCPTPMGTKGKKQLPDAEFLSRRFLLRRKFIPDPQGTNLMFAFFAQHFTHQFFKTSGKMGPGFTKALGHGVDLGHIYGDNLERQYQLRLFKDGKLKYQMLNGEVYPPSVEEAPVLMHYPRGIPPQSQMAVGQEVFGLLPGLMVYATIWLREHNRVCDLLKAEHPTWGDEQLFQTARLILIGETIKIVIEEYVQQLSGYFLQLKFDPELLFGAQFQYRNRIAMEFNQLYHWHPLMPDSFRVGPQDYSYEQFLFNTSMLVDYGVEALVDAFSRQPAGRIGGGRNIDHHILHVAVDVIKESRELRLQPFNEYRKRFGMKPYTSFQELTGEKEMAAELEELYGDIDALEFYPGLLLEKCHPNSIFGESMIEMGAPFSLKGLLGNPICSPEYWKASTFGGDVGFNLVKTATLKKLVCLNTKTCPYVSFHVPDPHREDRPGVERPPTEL
Endpoint: IC50 (µM)
Express it in µM; write the number only.

COc1ccc(-c2nnc3n2-c2ccccc2C(C)=NC3C)cc1 (stereo not shown) has a reported IC50 of 2
